What Ki was measured for each of the following?
# TEST SYSTEM: Kappa-type opioid receptor (Homo sapiens, UniProt P41145)
# Sequence (P41145 whole entry): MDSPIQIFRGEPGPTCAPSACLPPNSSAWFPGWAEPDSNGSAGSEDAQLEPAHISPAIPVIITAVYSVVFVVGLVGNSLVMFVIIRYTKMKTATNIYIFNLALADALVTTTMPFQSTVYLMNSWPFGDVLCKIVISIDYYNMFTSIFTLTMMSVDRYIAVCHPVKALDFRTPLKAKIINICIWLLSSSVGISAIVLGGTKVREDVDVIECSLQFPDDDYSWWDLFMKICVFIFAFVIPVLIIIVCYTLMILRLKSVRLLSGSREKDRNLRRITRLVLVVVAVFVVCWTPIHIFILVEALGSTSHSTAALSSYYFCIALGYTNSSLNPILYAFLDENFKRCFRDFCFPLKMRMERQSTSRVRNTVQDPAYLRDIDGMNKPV
# EXPERIMENTAL PROTOCOL: Displacement of [3H]-diprenorphine from recombinant human KOR transiently expressed in HEK293 cell membranes measured after 60 mins
Numeric only. Scale: nM

[in] Recorded Ki for `CN1/C(=C/C=C/C2=[N+](CCCCCC(=O)NCCCNC(=N)Nc3ccc4[nH]c5c(c4c3)C[C@@]3(O)[C@H]4Cc6ccc(O)c7c6[C@@]3(CCN4CC3CC3)[C@H]5O7)c3ccc(S(=O)(=O)[O-])cc3C2(C)C)C(C)(C)c2cc(S(=O)(=O)O)ccc21` , please?
[out] 8.6

[in] Recorded Ki for `CN1/C(=C/C=C/C=C/C2=[N+](CCCCCC(=O)NCC(=O)NCC(=O)NCCCNC(=N)Nc3ccc4[nH]c5c(c4c3)C[C@@]3(O)[C@H]4Cc6ccc(O)c7c6[C@@]3(CCN4CC3CC3)[C@H]5O7)c3ccc(S(=O)(=O)[O-])cc3C2(C)C)C(C)(C)c2cc(S(=O)(=O)O)ccc21` , please?
[out] 1.1

[in] Recorded Ki for `CN1/C(=C/C=C/C2=[N+](CCCCCC(=O)NCC(=O)NCC(=O)NCC(=O)NCC(=O)NCCCNC(=N)Nc3ccc4[nH]c5c(c4c3)C[C@@]3(O)[C@H]4Cc6ccc(O)c7c6[C@@]3(CCN4CC3CC3)[C@H]5O7)c3ccc(S(=O)(=O)[O-])cc3C2(C)C)C(C)(C)c2cc(S(=O)(=O)O)ccc21` , please?
[out] 3.2

[in] Recorded Ki for `CN1/C(=C/C=C/C=C/C2=[N+](CCCCCC(=O)NCC(=O)NCC(=O)NCC(=O)NCC(=O)NCCCNC(=N)Nc3ccc4[nH]c5c(c4c3)C[C@@]3(O)[C@H]4Cc6ccc(O)c7c6[C@@]3(CCN4CC3CC3)[C@H]5O7)c3ccc(S(=O)(=O)[O-])cc3C2(C)C)C(C)(C)c2cc(S(=O)(=O)O)ccc21` , please?
[out] 1.8

[in] Recorded Ki for `CN1/C(=C/C=C/C=C/C2=[N+](CCCCCC(=O)NCCCNC(=N)Nc3ccc4[nH]c5c(c4c3)C[C@@]3(O)[C@H]4Cc6ccc(O)c7c6[C@@]3(CCN4CC3CC3)[C@H]5O7)c3ccc(S(=O)(=O)[O-])cc3C2(C)C)C(C)(C)c2cc(S(=O)(=O)O)ccc21` , please?
[out] 1.4
